Compiled pIC50 measurements on 3',5'-cyclic-AMP phosphodiesterase 4A (Homo sapiens, UniProt P27815) taken from the literature.
pIC50: −log10 of the molar value.

Solved cases (6 shown):
* CCOc1nc(N2CCNCC2)nc2c1sc1nc(-c3ccc(OC)cc3)cc(CC)c12 | > 8.70
* CCOc1nc(N2CCNCC2)nc2c1sc1nc(-c3ccccn3)cc(C(F)(F)F)c12 | 7.30 to 8.70
* Cc1cc(-c2ccccc2)nc2sc3c(N4CCNCC4)nc(OC(C)C)nc3c12 | 7.30 to 8.70
* CCOc1nc(N2CCNCC2)nc2c1sc1nc(-c3ccc(C(O)CO)cc3)nc(C)c12 (stereo not drawn) | 7.30 to 8.70
* CCOc1nc(N2CCNCC2)nc2c1sc1nc(-c3ccc(Br)cc3)cc(CC)c12 | > 8.70
* N#Cc1cc(F)c(-c2c(C(=O)NC3CC3)nn3cccnc23)cc1F | 7.66

Task item: # pIC50 lookup, item Cc1cc(-c2ccccc2)nc2sc3c(N4CCNCC4)nc(OCC(F)F)nc3c12
Reply: 7.30 to 8.70

Task item: Please give the measured pIC50 for this compound: [2H]C1([2H])Oc2ccc([C@@H]3c4[nH]c5ccccc5c4C[C@@H]4C(=O)N(N)CC(=O)N34)cc2O1
Reply: < 5.00

Task item: For the compound O=C(c1nn2cccnc2c1-c1cc(F)c(Cl)cc1F)N1CCC1 , what pIC50 is on record?
Reply: 8.14
